# experimentalTarget: Protein deacetylase HDAC6 (Homo sapiens) (UniProt Q9UBN7)
# Sequence (whole entry): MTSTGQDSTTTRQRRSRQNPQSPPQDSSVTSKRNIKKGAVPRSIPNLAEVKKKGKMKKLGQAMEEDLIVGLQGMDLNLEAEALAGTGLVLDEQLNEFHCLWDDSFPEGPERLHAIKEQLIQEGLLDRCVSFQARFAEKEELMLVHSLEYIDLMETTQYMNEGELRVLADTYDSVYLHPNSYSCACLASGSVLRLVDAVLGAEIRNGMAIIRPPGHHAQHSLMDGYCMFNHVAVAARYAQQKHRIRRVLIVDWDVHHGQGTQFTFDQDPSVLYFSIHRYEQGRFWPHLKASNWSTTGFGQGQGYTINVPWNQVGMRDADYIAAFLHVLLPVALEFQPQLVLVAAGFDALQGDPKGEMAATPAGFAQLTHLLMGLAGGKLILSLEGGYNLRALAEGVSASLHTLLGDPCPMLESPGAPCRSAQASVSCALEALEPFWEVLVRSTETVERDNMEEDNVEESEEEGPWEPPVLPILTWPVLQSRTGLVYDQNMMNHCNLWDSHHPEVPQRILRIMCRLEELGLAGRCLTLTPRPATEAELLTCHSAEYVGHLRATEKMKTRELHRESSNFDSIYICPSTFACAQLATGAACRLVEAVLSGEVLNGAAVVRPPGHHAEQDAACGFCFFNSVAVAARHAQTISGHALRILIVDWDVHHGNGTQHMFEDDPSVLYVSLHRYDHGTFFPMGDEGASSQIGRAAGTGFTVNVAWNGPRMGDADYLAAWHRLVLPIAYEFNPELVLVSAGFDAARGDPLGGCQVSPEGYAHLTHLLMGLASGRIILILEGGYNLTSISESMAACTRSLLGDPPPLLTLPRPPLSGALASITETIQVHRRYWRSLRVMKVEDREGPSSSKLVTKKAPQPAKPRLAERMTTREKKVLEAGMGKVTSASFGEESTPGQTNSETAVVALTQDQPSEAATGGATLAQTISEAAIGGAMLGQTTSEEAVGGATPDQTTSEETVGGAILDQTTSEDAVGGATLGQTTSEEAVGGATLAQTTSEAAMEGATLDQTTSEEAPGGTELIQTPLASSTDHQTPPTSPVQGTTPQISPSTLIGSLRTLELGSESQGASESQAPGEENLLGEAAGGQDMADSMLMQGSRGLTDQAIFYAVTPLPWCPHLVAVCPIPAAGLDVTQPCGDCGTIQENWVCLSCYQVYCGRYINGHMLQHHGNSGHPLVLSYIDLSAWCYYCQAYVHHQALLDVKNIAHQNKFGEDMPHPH
# conditionContext: at 10 µM
Out of some 5,600 compounds screened, about 150 (2.7%) showed an effect of 50% or more. What follows is part of a selection rich in strong results, with near analogues and random picks from the rest.
metricName: inhibition

COc1ccc(-n2c(SCc3nc(-c4ccc(C)cc4)no3)nnc2-c2ccncc2)cc1 :: -7.03%
O=C(O)c1cc([N+](=O)[O-])ccc1NCCCc1ccccc1 :: 52.3%
CNC(=O)O[C@H]1COc2ccc(N3CCN(C4COC4)CC3)cc2[C@@H]1NC(=O)c1ccc(F)cc1 :: -3.83%
O=C1Nc2cc(Br)ccc2/C1=C1/Nc2ccccc2/C1=N\O :: 2.55%

Input O=C(O)COc1cccc(CN(Cc2ccc(-n3cccn3)cc2)S(=O)(=O)c2cccnc2)c1 . Output inhibition: 0.4%

Input Cc1ccc(-c2cn3c4c(sc3n2)CCCC4)cc1 . Output inhibition: 95.1%

Input Cc1cccc(/C=C/c2ccccc2)n1 . Output inhibition: 98.2%
